# measurement-description: Intrinsic clearance and half-life in mouse microsomes
# Format: in vitro ADME
# measurement-setup: Mouse microsomes; read-out: t1/2
property-label: half-life

query: // query half-life value for entry CCOc1ccc2cc(C3CC(c4ccc(I)cc4)=NN3C(=O)CCCC(=O)NCCCN3CCOCC3)c(Cl)nc2c1 (stereo not shown)
result: 43.9 min

###

# measurement-description: Pharmacokinetics in mice (plasma, HPLC-MS/MS)
# Type: in vivo
# measurement-setup: mouse, plasma, ip, 20 mg/kg, IP, NMP vehicle, 20 mg/kg, mice; read-out: AUC 0-inf_obs
property-label: AUC(0-inf)
Enter the number, and then the unit.

query: // query AUC(0-inf) value for entry CCOc1ccc2cc(C3CC(c4ccc(I)cc4)=NN3C(=O)CCCC(=O)NCCCN3CCOCC3)c(Cl)nc2c1 (stereo not shown) [compound 329]
result: 16500 ng·h/mL
